Recorded measurements of kon, one per entry
# testedTarget: T1, His-tagged human CD40 extracellular domain (ECD) (human, UniProt P25942 21-193)
# T1 construct: Bought from Sino Biological; also called human CD40 ECD; CD40-his ECD antigen; not shown: His tag
# T1 sequence (P25942 21-193): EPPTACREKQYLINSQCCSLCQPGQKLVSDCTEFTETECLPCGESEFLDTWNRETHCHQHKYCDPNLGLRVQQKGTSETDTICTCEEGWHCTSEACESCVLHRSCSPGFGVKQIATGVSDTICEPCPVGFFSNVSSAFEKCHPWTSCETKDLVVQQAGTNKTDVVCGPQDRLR
# protocolNotes: SPR (IBIS MX96), antibody captured, monovalent CD40 ECD in solution
readout: kon

1) antibody 15833 (antibody, human IgG1, kappa, L234A L235A, V domains shown, Fully human IgG1-LALA / kappa) VH: QVQLVESGGGVVQPGRSLRLSCAASGFTFSNYAMHWVRQAPGKGLEWVALISFDGSYKYYADSVKGRFTISRDNSKNTLYLQMNSLRAEDTAVYYCVKDAGYSSSWFFDYWGQGTLVTVSS VL: DIQMTQSPSSVSASVGDRVTITCRASQDISSWLAWYQQKPGKAPKLLIYAASSLQSGVPSRFSGSGSGTDFTLTISSLQPEDFGNYYCQQANSFPWTFGQGTKVEIKR = 41000 M⁻¹ s⁻¹
2) antibody 15948 (antibody, human IgG1, kappa, L234A L235A, V domains shown, Fully human IgG1-LALA / kappa) VH: QVQLVESGGGVVQPGRSLRLSCAASGFTFSIYGMHWVRQAPGKGLEWVAVISYDGSNKYYADSVKGRFTISRDNSKNTLYLQMNSLRAEDTAVYYCAKDPDYYGSGSYYPDWGQGTLVTVSS VL: DIQLTQSPSFLSASVGDRVTITCRASQGISSYLAWYQQKPGKAPKLLIYAASTLQSGVPSRFSGSGSGTEFTLTISSLQPEDFATYYCQQVKSYPLTFGGGTKVEIKR = 99000 M⁻¹ s⁻¹
3) antibody 16154 (antibody, human IgG1, kappa, L234A L235A, V domains shown, Fully human IgG1-LALA / kappa) VH: EVQLVESGGGLVQPGGSLRLSCAASGFTFTSYWMSWVRQAPGKGLEWVANIKQDGSEKYYVDSVKGRFTISRDNAKNSLYLQMNSLRAEDTAVYYCARGPVAGPYWYFDLWGRGTLVTVSS VL: AIQMTQSPSSLSASVGDRVTITCRASQGIRNDLGWYQQKPGKAPKLLIYAASSLQSGVPSRFSGSGSGTDFTLTISSLQPEDFATYYCLQDYHYPLTFGGGTKVEIKR = 53000 M⁻¹ s⁻¹
